- Measured target: benzodiazepine (BZP) receptors
- Protocol text: Displacement ability for benzodiazepine receptor (tritiated diazepam binding, crude synaptosome fraction of cerebral cortex)
- Test parameters: displacement of tritiated diazepam (2 nM), 0°C, 20 minutes, rat cerebral cortex synaptosome fraction
- Protocol: The test of specific binding to benzodiazepine (BZP) receptors was carried out according to the method described in Life Science, vol. 20, 2101 (1977). […] The specific binding was determined by subtracting the binding in the presence of 10⁻⁶ M unlabelled diazepam from total binding. The affinity for benzodiazepine receptors of the compound of the present invention is evaluated from its displacement ability for tritiated diazepam at its binding site, which is represented by Ki value (nM).
Experimental endpoint: pKi
Answers are plain numbers, as −log10 of the molar value.

INPUT: Find the measured pKi of CC(=O)c1cc2c(s1)CCCC1CC(=O)N(c3ccc(Cl)cc3)N=C21 (stereo not shown) and report it.
OUTPUT: 8.38
